System: Anemic Decerebrate Rigidity Sample (EMG, M. triceps brachii)
Assay: Effects on Anemic Decerebrate Rigidity Sample (suppression of EMG of forelimb muscle)
Format: in vivo, Wistar male rats
Conditions: iv, 10 min; rat, 3 mg/kg in physiological saline through femoral vein, 10 minutes after administration; read-out: Suppression rate
Exercise: for every item that follows, state its recorded inhibition in vivo at 3 mg/kg.
Give bare numbers, in %.

molecule	inhibition in vivo at 3 mg/kg / %
CC(C)C[C@@H]1[C@H](c2ccc(F)cc2)OC(=O)N1CCCN1CCCCC1 (racemic)	9.9
CC(C)C[C@@H]1[C@@H](c2ccccc2)OC(=O)N1CCCN1CCCCC1 [Compound 8]	12
CC(C)[C@@H]1[C@@H](c2ccccc2)OC(=O)N1CCCN1CCCCC1 (racemic)	19.8
CC(C)C[C@@H]1[C@H](c2ccccc2)OC(=O)N1CCCN1CCCCC1 [Compound 6]	14.9
CC(C)C[C@@H]1[C@@H](c2ccccc2)OC(=O)N1CCCN1CCCCC1 (racemic) [Compound 4]	21.2

For each of the molecules below, state inhibition in vivo at 3 mg/kg.
1. C[C@@H]1[C@H](c2ccccc2)OC(=O)N1CCN1CCCC1.Cl (racemic) [Comparative compound 4, hydrochloride, reference compound]
2. COc1ccc([C@@H]2OC(=O)N(CCCN3CCCCC3)[C@@H]2CC(C)C)cc1 (racemic)

1: 1; 2: 8.4

---

Experiment: Acute Toxicity (up-and-down method)
Conditions: mouse, in vivo, iv (caudal vein), ddN male mice
Field: LD50. Provide a value for each of the molecules that follow.
Answers are plain numbers, in mg/kg.

Solved cases (6 shown):
molecule	readout.name	u	assay.value
Cc1ccc([C@@H]2OC(=O)N(CCCN3CCCCC3)[C@@H]2CC(C)C)cc1 (racemic) [Compound 25]	LD50	mg/kg	34.9
CC(C)C[C@@H]1[C@H](c2ccccc2)OC(=O)N1CCCN1CCCC1 (racemic) [Compound 13]	LD50	mg/kg	75.1
CC(C)C[C@H]1[C@H](c2ccccc2)OC(=O)N1CCCN1CCCCC1 [Compound 7]	LD50	mg/kg	30.4
COc1ccc([C@@H]2OC(=O)N(CCCN3CCCCC3)[C@@H]2CC(C)C)cc1 (racemic) [Compound 27]	LD50	mg/kg	39.8
CC(C)C[C@@H]1[C@@H](c2ccccc2)OC(=O)N1CCCN1CCCCC1 (racemic) [Compound 4]	LD50	mg/kg	29.9
CC(C)[C@@H]1[C@@H](c2ccccc2)OC(=O)N1CCCN1CCCCC1 (racemic) [Compound 2]	LD50	mg/kg	18.8

Give LD50 for all molecules that follow.
1. CC(C)C[C@@H]1[C@@H](c2ccccc2)OC(=O)N1CCCN1CCCC1 (racemic) [Compound 14]
2. CC(C)C[C@H]1[C@@H](c2ccccc2)OC(=O)N1CCCN1CCCCC1 [Compound 5]
3. CC(C)C[C@@H]1[C@H](c2ccc(F)cc2)OC(=O)N1CCCN1CCCCC1 (racemic) [Compound 29]
4. CC(C)CC[C@@H]1[C@H](c2ccccc2)OC(=O)N1CCCN1CCCCC1 (racemic) [Compound 40]

1: 53.2; 2: 69; 3: 66.1; 4: 53.6

---

Assay: Acute Toxicity (up-and-down method)
Conditions: mouse, in vivo, iv (caudal vein), ddN male mice
readout.name: LD50 (mg/kg)
One number for each entry, in mg/kg.

Example compounds with recorded LD50:
compound	LD50 / mg/kg
CC(C)C[C@@H]1[C@H](c2ccccc2)OC(=O)N1CCCN1CCCCC1 (racemic)	55.5
CC(C)[C@@H]1[C@@H](c2ccccc2)OC(=O)N1CCCN1CCCC1 (racemic)	54.6
CC(C)C[C@H]1[C@@H](c2ccccc2)OC(=O)N1CCCN1CCCCCC1	40.1

Note: attention shifts to another entry.
Given the compound CC(C)[C@@H]1[C@H](c2ccccc2)OC(=O)N1CCCN1CCCCC1 (racemic) , what is its reported LD50?
29.7
